Every entry's value here was drawn from patent US8481597B2.

- ASSAYED_SYSTEM: CYP2C9 (Homo sapiens, UniProt P11712)
- Sequence (P11712 whole entry): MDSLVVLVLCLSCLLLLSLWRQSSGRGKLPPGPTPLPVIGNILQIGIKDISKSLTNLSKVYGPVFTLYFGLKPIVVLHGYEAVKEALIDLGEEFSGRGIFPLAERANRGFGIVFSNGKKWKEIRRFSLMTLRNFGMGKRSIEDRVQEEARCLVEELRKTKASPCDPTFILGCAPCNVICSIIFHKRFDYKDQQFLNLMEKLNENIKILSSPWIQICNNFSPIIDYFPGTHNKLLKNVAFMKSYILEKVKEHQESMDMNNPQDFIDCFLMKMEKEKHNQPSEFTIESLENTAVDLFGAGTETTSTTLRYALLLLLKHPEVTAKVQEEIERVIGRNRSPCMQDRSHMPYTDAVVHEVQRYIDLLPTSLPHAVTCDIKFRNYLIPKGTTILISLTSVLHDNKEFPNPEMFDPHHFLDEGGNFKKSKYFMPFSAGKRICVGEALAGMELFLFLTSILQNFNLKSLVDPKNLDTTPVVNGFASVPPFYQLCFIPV
- ASSAY_CONDITIONS: both, human, microsomes, 40 min
pIC50: −log10 of the molar value.
PROPERTY_LABEL: pIC50

// query Value lookup for pIC50; key = O=C(O)C(Oc1cccc(C(F)(F)F)c1)c1ccc(Cl)cc1 (single isomer, unassigned; (-)) [(−) halofenic acid]
// result ~4.95

----------
- ASSAYED_SYSTEM: cyclooxygenase 1 (COX-1) (Homo sapiens, UniProt P23219)
- Construct: was conducted using fresh human blood from healthy donors; endogenous in cells; host or cells: heparinized fresh human whole blood, stimulated with calcium ionophore A23187
- Sequence (P23219 24-599): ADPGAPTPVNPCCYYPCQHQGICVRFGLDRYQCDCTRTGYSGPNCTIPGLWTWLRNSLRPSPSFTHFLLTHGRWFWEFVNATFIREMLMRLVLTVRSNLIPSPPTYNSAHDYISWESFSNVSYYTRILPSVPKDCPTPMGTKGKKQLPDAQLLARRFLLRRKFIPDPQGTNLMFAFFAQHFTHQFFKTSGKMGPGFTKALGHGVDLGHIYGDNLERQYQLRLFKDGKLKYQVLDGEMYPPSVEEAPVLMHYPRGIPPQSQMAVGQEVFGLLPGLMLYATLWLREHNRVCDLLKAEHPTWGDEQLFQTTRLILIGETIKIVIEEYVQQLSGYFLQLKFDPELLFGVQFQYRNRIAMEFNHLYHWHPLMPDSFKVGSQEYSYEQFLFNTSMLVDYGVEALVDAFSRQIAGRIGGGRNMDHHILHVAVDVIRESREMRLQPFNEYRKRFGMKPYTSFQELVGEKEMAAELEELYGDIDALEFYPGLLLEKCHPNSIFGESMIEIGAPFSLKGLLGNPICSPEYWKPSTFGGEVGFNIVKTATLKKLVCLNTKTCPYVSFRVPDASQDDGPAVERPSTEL
- ASSAY_SUMMARY: COX-1 inhibition in human whole blood assay, TXB2 production (Example 19)
- Format: cell-based
PROPERTY_LABEL: IC50

// query Value lookup for IC50; key = CC(=O)NCCOC(=O)C(Oc1cccc(C(F)(F)F)c1)c1ccc(Cl)cc1 (racemic) [racemic halofenate, reference compound]
// result ~1000 µM
